method.description: Pharmacokinetic study of rivaroxaban in rats, alone and with ribociclib (UPLC-MS/MS plasma levels)
Format: in vivo, Sprague-Dawley rats
run.conditions: Sprague-Dawley, rat, plasma, oral RIVA 2 mg/kg alone, read-out: Cmax
Protocol: Experimental animals were randomly divided into nine groups (n = 6, Table 1). Ribociclib was suspended in methylcellulose (MC), rivaroxaban was prepared in hydroxypropyl methylcellulose (HPMC), and apixaban was suspended in 5% DMSO in water. To achieve steady-state blood concentrations, a drug typically requires five to seven half-lives. […] Apixaban and rivaroxaban concentrations in plasma samples were determined using our previously established UPLC-MS/MS method ([Wang et al., 2023]). […]
property.name: Cmax (ng/mL)
Numbers only here, please. The scale is ng/mL.

Prompt: Form field: reported Cmax of O=C(NC[C@H]1CN(c2ccc(N3CCOCC3=O)cc2)C(=O)O1)c1ccc(Cl)s1
Completion: 292

###

method.description: Pharmacokinetic study of rivaroxaban in rats, alone and with ribociclib (UPLC-MS/MS plasma levels)
Type: in vivo, Sprague-Dawley rats
run.conditions: Sprague-Dawley, rat, plasma, po, 1 mg/kg, RIVA 1 mg/kg + RIBO 60 mg/kg for 8 days, read-out: MRT0- ∞
property.name: MRT inf (h)
Numbers only here, please. The scale is h.

Prompt: Form field: reported MRT inf of O=C(NC[C@H]1CN(c2ccc(N3CCOCC3=O)cc2)C(=O)O1)c1ccc(Cl)s1
Completion: 5.84

###

method.description: Pharmacokinetic study of rivaroxaban in rats, alone and with ribociclib (UPLC-MS/MS plasma levels)
Format: in vivo, Sprague-Dawley rats
run.conditions: Sprague-Dawley, rat, plasma, po, 2 mg/kg, RIVA 2 mg/kg + RIBO 60 mg/kg for 8 days, read-out: MRT0-t
property.name: MRT last (h)
Numbers only here, please. The scale is h.

Prompt: Form field: reported MRT last of O=C(NC[C@H]1CN(c2ccc(N3CCOCC3=O)cc2)C(=O)O1)c1ccc(Cl)s1
Completion: 4.2

###

method.description: Pharmacokinetic study of rivaroxaban in rats, alone and with ribociclib (UPLC-MS/MS plasma levels)
Type: in vivo, Sprague-Dawley rats
run.conditions: Sprague-Dawley, rat, plasma, po, 2 mg/kg, RIVA 2 mg/kg + timed RIBO (12 h), RIBO 60 mg/kg for 8 days, read-out: CLz/F (converted)
property.name: CL/F (mL/min/kg)
Numbers only here, please. The scale is mL/min/kg.

Prompt: Form field: reported CL/F of O=C(NC[C@H]1CN(c2ccc(N3CCOCC3=O)cc2)C(=O)O1)c1ccc(Cl)s1 [RIVA, rivaroxaban]
Completion: 16.8

###

method.description: Pharmacokinetic study of rivaroxaban in rats, alone and with ribociclib (UPLC-MS/MS plasma levels)
Format: in vivo, Sprague-Dawley rats
run.conditions: Sprague-Dawley, rat, plasma, po, 2 mg/kg, RIVA 2 mg/kg + timed RIBO (12 h), RIBO 60 mg/kg for 8 days, read-out: MRT0-t
property.name: MRT last (h)
Numbers only here, please. The scale is h.

Prompt: Form field: reported MRT last of O=C(NC[C@H]1CN(c2ccc(N3CCOCC3=O)cc2)C(=O)O1)c1ccc(Cl)s1
Completion: 4.24

###

method.description: Pharmacokinetic study of rivaroxaban in rats, alone and with ribociclib (UPLC-MS/MS plasma levels)
Type: in vivo, Sprague-Dawley rats
run.conditions: Sprague-Dawley, rat, plasma, po, RIVA 1 mg/kg + RIBO 60 mg/kg for 8 days, read-out: Cmax
property.name: Cmax

Prompt: Form field: reported Cmax of O=C(NC[C@H]1CN(c2ccc(N3CCOCC3=O)cc2)C(=O)O1)c1ccc(Cl)s1
Completion: 681 ng/mL

###

method.description: Pharmacokinetic study of apixaban in rats, alone and after ribociclib (UPLC-MS/MS plasma levels)
Type: in vivo, Sprague-Dawley rats
run.conditions: Sprague-Dawley, rat, plasma, po, 0.5 mg/kg, API 0.5 mg/kg after RIBO 60 mg/kg for 8 days, read-out: CLz/F (converted)
property.name: CL/F (mL/min/kg)
Numbers only here, please. The scale is mL/min/kg.

Prompt: Form field: reported CL/F of COc1ccc(-n2nc(C(N)=O)c3c2C(=O)N(c2ccc(N4CCCCC4=O)cc2)CC3)cc1 [API, apixaban]
Completion: 13.7

###

method.description: Pharmacokinetic study of ribociclib in rats, alone and after rivaroxaban or apixaban (UPLC-MS/MS plasma levels)
Type: in vivo, Sprague-Dawley rats
run.conditions: Sprague-Dawley, rat, plasma, po, 60 mg/kg, rats, oral RIBO 60 mg/kg alone; read-out: Vz/F
property.name: Vd/F (L/kg)
Numbers only here, please. The scale is L/kg.

Prompt: Form field: reported Vd/F of CN(C)C(=O)c1cc2cnc(Nc3ccc(N4CCNCC4)cn3)nc2n1C1CCCC1
Completion: 35.5

###

method.description: Pharmacokinetic study of ribociclib in rats, alone and after rivaroxaban or apixaban (UPLC-MS/MS plasma levels)
Format: in vivo, Sprague-Dawley rats
run.conditions: Sprague-Dawley, rat, plasma, po, 60 mg/kg, rats, oral RIBO 60 mg/kg alone
property.name: AUC(0-t) (ng·h/mL)
Numbers only here, please. The scale is ng·h/mL.

Prompt: Form field: reported AUC(0-t) of CN(C)C(=O)c1cc2cnc(Nc3ccc(N4CCNCC4)cn3)nc2n1C1CCCC1
Completion: 20300

###

method.description: Pharmacokinetic study of apixaban in rats, alone and after ribociclib (UPLC-MS/MS plasma levels)
Type: in vivo, Sprague-Dawley rats
run.conditions: Sprague-Dawley, rat, plasma, po, 0.5 mg/kg, API 0.5 mg/kg after RIBO 60 mg/kg for 8 days, read-out: Vz/F
property.name: Vd/F (L/kg)
Numbers only here, please. The scale is L/kg.

Prompt: Form field: reported Vd/F of COc1ccc(-n2nc(C(N)=O)c3c2C(=O)N(c2ccc(N4CCCCC4=O)cc2)CC3)cc1 [API, apixaban]
Completion: 5.57

###

method.description: Pharmacokinetic study of rivaroxaban in rats, alone and with ribociclib (UPLC-MS/MS plasma levels)
Format: in vivo, Sprague-Dawley rats
run.conditions: Sprague-Dawley, rat, plasma, po, 2 mg/kg, oral RIVA 2 mg/kg alone
Experimental: Experimental animals were randomly divided into nine groups (n = 6, Table 1). Ribociclib was suspended in methylcellulose (MC), rivaroxaban was prepared in hydroxypropyl methylcellulose (HPMC), and apixaban was suspended in 5% DMSO in water. To achieve steady-state blood concentrations, a drug typically requires five to seven half-lives. […] Apixaban and rivaroxaban concentrations in plasma samples were determined using our previously established UPLC-MS/MS method ([Wang et al., 2023]). […]
property.name: AUC(0-inf) (ng·h/mL)
Numbers only here, please. The scale is ng·h/mL.

Prompt: Form field: reported AUC(0-inf) of O=C(NC[C@H]1CN(c2ccc(N3CCOCC3=O)cc2)C(=O)O1)c1ccc(Cl)s1
Completion: 1360

###

method.description: Pharmacokinetic study of apixaban in rats, alone and after ribociclib (UPLC-MS/MS plasma levels)
Type: in vivo, Sprague-Dawley rats
run.conditions: Sprague-Dawley, rat, plasma, oral API 0.5 mg/kg alone, read-out: AUC0-t
property.name: AUC(0-t)
Include the unit right after the number.

Prompt: Form field: reported AUC(0-t) of COc1ccc(-n2nc(C(N)=O)c3c2C(=O)N(c2ccc(N4CCCCC4=O)cc2)CC3)cc1 [API, apixaban]
Completion: 409 ng·h/mL

###

method.description: Pharmacokinetic study of ribociclib in rats, alone and after rivaroxaban or apixaban (UPLC-MS/MS plasma levels)
Type: in vivo, Sprague-Dawley rats
run.conditions: Sprague-Dawley, rat, plasma, po, 60 mg/kg, rats, RIBO 60 mg/kg after API 0.5 mg/kg for 5 days
property.name: Tmax (h)
Numbers only here, please. The scale is h.

Prompt: Form field: reported Tmax of CN(C)C(=O)c1cc2cnc(Nc3ccc(N4CCNCC4)cn3)nc2n1C1CCCC1 [RIBO, ribociclib]
Completion: 4.33

###

method.description: Pharmacokinetic study of ribociclib in rats, alone and after rivaroxaban or apixaban (UPLC-MS/MS plasma levels)
Format: in vivo, Sprague-Dawley rats
run.conditions: Sprague-Dawley, rat, plasma, po, 60 mg/kg, rats, RIBO 60 mg/kg after API 0.5 mg/kg for 5 days
property.name: AUC(0-inf) (ng·h/mL)
Numbers only here, please. The scale is ng·h/mL.

Prompt: Form field: reported AUC(0-inf) of CN(C)C(=O)c1cc2cnc(Nc3ccc(N4CCNCC4)cn3)nc2n1C1CCCC1
Completion: 25200

###

method.description: Pharmacokinetic study of apixaban in rats, alone and after ribociclib (UPLC-MS/MS plasma levels)
Assay type: in vivo, Sprague-Dawley rats
run.conditions: Sprague-Dawley, rat, plasma, po, 0.5 mg/kg, oral API 0.5 mg/kg alone
property.name: Cmax (ng/mL)
Numbers only here, please. The scale is ng/mL.

Prompt: Form field: reported Cmax of COc1ccc(-n2nc(C(N)=O)c3c2C(=O)N(c2ccc(N4CCCCC4=O)cc2)CC3)cc1 [API, apixaban]
Completion: 140

These entries and their values trace back to paper PMC11994961.
